Values were extracted from patent US9156845B2.

Biological target: GST-tagged truncated LRRK2 (Homo sapiens (Human))
Sequence (Q5S007 970-2527): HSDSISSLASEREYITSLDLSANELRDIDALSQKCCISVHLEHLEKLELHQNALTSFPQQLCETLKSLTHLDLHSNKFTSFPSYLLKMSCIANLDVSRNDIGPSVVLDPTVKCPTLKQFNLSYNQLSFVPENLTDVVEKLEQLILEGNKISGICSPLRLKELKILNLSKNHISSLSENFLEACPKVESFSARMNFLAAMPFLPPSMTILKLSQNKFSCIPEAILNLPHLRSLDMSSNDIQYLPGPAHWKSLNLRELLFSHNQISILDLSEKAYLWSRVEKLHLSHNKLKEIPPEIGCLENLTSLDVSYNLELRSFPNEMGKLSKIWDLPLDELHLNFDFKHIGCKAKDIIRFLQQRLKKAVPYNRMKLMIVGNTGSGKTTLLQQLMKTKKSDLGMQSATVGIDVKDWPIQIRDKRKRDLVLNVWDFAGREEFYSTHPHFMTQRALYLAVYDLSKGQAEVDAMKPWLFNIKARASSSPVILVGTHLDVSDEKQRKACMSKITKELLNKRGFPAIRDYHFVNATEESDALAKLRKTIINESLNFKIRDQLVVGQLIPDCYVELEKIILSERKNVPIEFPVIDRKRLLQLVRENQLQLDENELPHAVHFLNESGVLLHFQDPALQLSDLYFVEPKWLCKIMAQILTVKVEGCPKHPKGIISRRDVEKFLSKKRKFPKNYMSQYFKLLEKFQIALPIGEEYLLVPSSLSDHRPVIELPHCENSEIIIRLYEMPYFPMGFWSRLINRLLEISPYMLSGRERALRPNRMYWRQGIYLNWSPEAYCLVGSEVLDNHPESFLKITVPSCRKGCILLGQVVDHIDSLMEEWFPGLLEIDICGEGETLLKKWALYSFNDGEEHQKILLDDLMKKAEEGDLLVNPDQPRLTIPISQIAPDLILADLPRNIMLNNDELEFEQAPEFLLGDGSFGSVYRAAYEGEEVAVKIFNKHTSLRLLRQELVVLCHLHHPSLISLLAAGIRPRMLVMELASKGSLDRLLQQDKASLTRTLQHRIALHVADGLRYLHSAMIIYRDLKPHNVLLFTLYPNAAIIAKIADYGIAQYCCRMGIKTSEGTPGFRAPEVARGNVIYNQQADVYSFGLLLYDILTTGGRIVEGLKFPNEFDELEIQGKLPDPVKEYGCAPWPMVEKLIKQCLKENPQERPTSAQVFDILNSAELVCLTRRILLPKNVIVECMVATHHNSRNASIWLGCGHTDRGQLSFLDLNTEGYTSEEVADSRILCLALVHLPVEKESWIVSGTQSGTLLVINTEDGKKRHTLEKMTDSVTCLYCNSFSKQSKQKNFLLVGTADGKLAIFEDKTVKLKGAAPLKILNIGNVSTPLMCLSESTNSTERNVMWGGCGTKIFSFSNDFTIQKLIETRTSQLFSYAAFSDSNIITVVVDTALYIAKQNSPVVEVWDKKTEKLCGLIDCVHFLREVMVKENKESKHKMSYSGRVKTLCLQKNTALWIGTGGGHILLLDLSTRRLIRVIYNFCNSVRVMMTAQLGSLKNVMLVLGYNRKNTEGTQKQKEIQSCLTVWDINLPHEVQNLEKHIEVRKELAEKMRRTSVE
Assay: LRRK2 Lantha Screen kinase assay
Settings: geometric mean of 2-5 determinations unless otherwise indicated (a: >=6 determinations; b: single determination); read-out: LRRK2 WT IC50
Quantity Name: log10 IC50 (log10 of the value in nM)
A value of 2 here means IC50 of 100 in nM, since values are log10.

Short answer on GST-tagged truncated LRRK2 (Homo sapiens (Human)) for `CC1(C)CCCN(c2ncnc3[nH]cc(-c4cccc(C#N)c4)c23)C1` , log10 IC50: 1.95

Short answer on GST-tagged truncated LRRK2 (Homo sapiens (Human)) for COCC1CN(c2ncnc3[nH]cc(-c4cccc(C#N)c4F)c23)CCO1 (centres unmarked) , log10 IC50: 1.79

Short answer on GST-tagged truncated LRRK2 (Homo sapiens (Human)) for Cc1nc(C2CN(c3ncnc4[nH]cc(-c5cccc(C#N)c5F)c34)CCO2)no1 (centres unmarked) , log10 IC50: 1.23

Short answer on GST-tagged truncated LRRK2 (Homo sapiens (Human)) for `CN(C)c1ncnc2[nH]cc(-c3cccc(C#N)c3)c12` , log10 IC50: 0.70

Short answer on GST-tagged truncated LRRK2 (Homo sapiens (Human)) for `Cn1cc(-c2c[nH]c3ncnc(N4CCC(F)CC4)c23)cn1` , log10 IC50: 1.56

Short answer on GST-tagged truncated LRRK2 (Homo sapiens (Human)) for N#Cc1cccc(-c2c[nH]c3ncnc(N4CCOC(c5ccncn5)C4)c23)c1 (centres unmarked) , log10 IC50: 1.90

Short answer on GST-tagged truncated LRRK2 (Homo sapiens (Human)) for N#Cc1cccc(-c2c[nH]c3ncnc(N4CCOC(Cc5noc(C(F)F)n5)C4)c23)c1 (centres unmarked) , log10 IC50: 1.64

Short answer on GST-tagged truncated LRRK2 (Homo sapiens (Human)) for CC1CCN(c2ncnc3[nH]cc(-c4cccc(C#N)c4)c23)C1 (single isomer, unassigned) [Example 71] , log10 IC50: 1.32

----------
Target: GST-tagged truncated LRRK2 (Homo sapiens (Human))
Experiment: LRRK2 Lantha Screen kinase assay
Conditions: geometric mean of 2-5 determinations unless otherwise indicated (a: >=6 determinations; b: single determination); read-out: LRRK2 WT IC50
Consider the following compounds; for each one, report its pIC50.
Note on units: pIC50 is unitless, being -log10 of a concentration expressed in mol/L.

Record N#Cc1cccc(-c2c[nH]c3ncnc(N4CCC(c5cc[nH]n5)CC4)c23)c1 [Example 34] , field pIC50: 7.16

Record N#Cc1cccc(OCC2CN(c3ncnc4[nH]cc(-c5cccc(C#N)c5)c34)CCO2)c1 (stereo not drawn) [Example 137] , field pIC50: 7.52

Record Cc1nc(N2CCOCC2)c2c(-c3cccc(C#N)c3)c[nH]c2n1 [Example 9] , field pIC50: 7.38

Record C[C@@H]1CN(c2ncnc3[nH]cc(-c4cccc(C#N)c4)c23)CCO1 [Example 79] , field pIC50: 7.74

Record N#Cc1cccc(-c2c[nH]c3ncnc(N4CC5COCC5C4)c23)c1 (stereo not drawn) [Example 207] , field pIC50: 6.65

Record N#Cc1cccc(-c2c[nH]c3ncnc(NCCN4CCOCC4)c23)c1 [Example 42] , field pIC50: 7.05

Record c1ccc2c(-c3c[nH]c4ncnc(N5CCOCC5)c34)cncc2c1 [Example 104] , field pIC50: 7.57

Record N#Cc1cccc(-c2c[nH]c3ncnc(N4CCCC4)c23)c1 [Example 70] , field pIC50: 8.10

Record COc1ccc(C#N)cc1-c1c[nH]c2ncnc(N3CCC[C@H](C)C3)c12 [Example 66] , field pIC50: 7.68
